growth values, listed per item
tested on: UACC-62 melanoma; assay: NCI-60 one-dose screen, 48 h (100 = growth as untreated, 0 = no growth, -100 = all killed); conditions: 10 µM unless noted
About 83,000 compounds went through this panel and 20% of them were active in at least one assay; those are over-represented in the sample as a whole.
Give just the numeric value; % need not be written.

Query: I would be grateful if you could share the reported growth for Clc1ccc2c(c1)-n1cccc1C(c1ccc3ccccc3c1)=NC2 .
Result: 78.3

Query: I would be grateful if you could share the reported growth for CCSc1ccc([C@@H]2[C@@H](N)C(=O)N2c2cc(OC)c(OC)c(OC)c2)cc1 .
Result: 33.9

Query: I would be grateful if you could share the reported growth for N#Cc1nc(-c2ccc(Cl)cc2)cc(-c2ccc(Nc3nc(N4CCCCC4)nc(N4CCCCC4)n3)cc2)c1N .
Result: 106

###

tested on: SF-539 CNS; experiment: NCI-60 one-dose screen, 48 h; conditions: 10 µM unless noted
About 83,000 compounds went through this panel and 20% of them were active in at least one assay; those are over-represented in the sample as a whole. Activity calls are given as the source filed them. Rule for the calls: active = growth percent below 10; inactive = the rest.
Respond with a class label; see active, inactive

Query: Short answer needed: outcome of this test for CCCCn1c(-c2ccc(F)cc2)nc2cc(OC)c(OC)cc2c1=O ?
Result: inactive

Query: Short answer needed: outcome of this test for O=C(Nc1cnc(C(F)(F)F)cn1)c1cc(Cl)ccc1O ?
Result: active

Query: Short answer needed: outcome of this test for CC(=O)c1nn(-c2ccccc2)/c(=N\N=C\c2coc3ccc(F)cc3c2=O)s1 ?
Result: inactive

Query: Short answer needed: outcome of this test for CC(=O)c1c(C)nc(-c2cc(C)cc(Cl)c2)nc1-c1cccc(Oc2ccccc2)c1 ?
Result: inactive

Field: next molecule
Query: Short answer needed: outcome of this test for N#Cc1ccc(NC(=O)Nc2nc3ccc(OC(F)(F)F)cc3s2)cc1 ?
Result: active

###

growth values, listed per item
test system: OVCAR-3 ovarian; assay: NCI-60 one-dose screen, 48 h (100 = growth as untreated, 0 = no growth, -100 = all killed); conditions: 10 µM unless noted
About 83,000 compounds went through this panel and 20% of them were active in at least one assay; those are over-represented in the sample as a whole. Calls of active or inactive are those of the source. The calls were made as follows: active = growth percent below 10; inactive = the rest.

Examples from the recorded data:
Query: I would be grateful if you could share the reported growth for COc1cc(-c2n/c(=C\c3c(O)[nH]c4cc(Cl)ccc34)cc3c2=Nc2ccccc2-3)cc(OC)c1OC .
Result: 58.1% (inactive)

Query: I would be grateful if you could share the reported growth for COc1cc(-c2csc(NC(=O)Nc3cccc(C(F)(F)F)c3)n2)cc(OC)c1OC .
Result: 37.7% (inactive)

Query: I would be grateful if you could share the reported growth for O=C(Nc1ccc(Oc2ccc(Nc3nc4ccccc4s3)cc2)cc1)Nc1ccc(Cl)c(C(F)(F)F)c1 .
Result: -3.18% (active)

Query: I would be grateful if you could share the reported growth for NS(=O)(=O)c1ccc(N2N=C(c3cccs3)CC2c2ccccc2O)cc1 (stereo not drawn) .
Result: -20.6% (active)

Query: I would be grateful if you could share the reported growth for C#CC[C@@H]1C[C@]2(C)[C@H]3CC[C@@H]4[C@H]5C(C(=C)C)CC[C@]5(C(=O)NCCCCN)CC[C@@]4(C)[C@]3(C)CC[C@H]2C(C)(C)[C@H]1OC(C)=O (stereo partly drawn) .
Result: -87.3% (active)

Query: I would be grateful if you could share the reported growth for CCCCN(CCCC)CCC(=O)c1ccc(OC)c2ccccc12 .
Result: 83% (inactive)

Query: I would be grateful if you could share the reported growth for CCOC(=O)c1sc2nc(-c3cc4ccccc4o3)cc(-c3ccc(Cl)cc3)c2c1N .
Result: 103% (inactive)

Query: I would be grateful if you could share the reported growth for O=C(CSc1ccc(Cl)cc1)Nc1ccc(-c2nc3ccccc3s2)c(Cl)c1 .
Result: -10.9% (active)

Here is another compound to look at.
Query: I would be grateful if you could share the reported growth for C=C1NC(=O)C(C(C)CC)NC(=O)C2CSCC(NC(=O)CCC(=O)O)C(=O)NC(Cc3ccccc3)C(=O)NC(C)C(=O)NC(CC(C)CC)C(=O)NC(C(=O)NC(Cc3ccccc3)C(=O)N3CCCC3C(=O)N2)C(C)OC(=O)C(CO)NC(=O)C(C(O)COC)N(C)C(=O)C(C(C)C)NC(=O)C(CC(C)CC)NC1=O (stereo not drawn) .
Result: 12.4% [6 µM] (inactive)

Where these numbers come from: PubChem BioAssay (NCI)
